Reference source: the supplement of paper PMC10567573

Measured protein stability index, listed per entry.
B1: C10orf62 (parent)
chain: MLWVQRKRRRKETSECPSDKDKSP

Variants of: B1
Assay Info: protein stability index of a GFP-peptide fusion (GPS, HEK-293T) (PSI 1-6); higher = more stable;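 further: lentivirally expressed fusions sorted by FACS into six bins by GFP to DsRed ratio, PSI derived from sequencing read proportions per bin multiplied by bin number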
Test Conditions: c terminus: a fixed tail appended
Output: the number by itself.

Record excerpt, results attached:
protein stability index for S14H is 2.71

protein stability index for K11T is 2.73

protein stability index for R10M is 3.13

protein stability index for E15Q is 3.56

protein stability index for E15C is 3

More entries:
protein stability index for D21H is 2.28

protein stability index for Q5W is 1.93

protein stability index for R9Y is 3.75

protein stability index for Q5P is 3.11

protein stability index for E15Y is 2.76

protein stability index for W3T is 4.73
